- System: CU-ACC2
- test.description: area under concentration-response curve (viability) (AUC (a.u.)); higher = less active
- assay.context: 48 h
property.measured: area under concentration-response curve
Write the value as a bare number.

Asked: What area under concentration-response curve appears in the records for this molecule with CU-ACC2? `Cc1ccc(C(=O)Nc2ccc([S+](=O)([O-])O)c3cc([S+](=O)([O-])O)cc([S+](=O)([O-])O)c23)cc1NC(=O)c1cccc(NC(=O)Nc2cccc(C(=O)Nc3cc(C(=O)Nc4ccc([S+](=O)([O-])O)c5cc([S+](=O)([O-])O)cc([S+](=O)([O-])O)c45)ccc3C)c2)c1`
Given back: 488

Asked: For `OC1=CC2=C(C(=C1)O)C(=O)\C=C(/O2)C3=CC=CC=C3` then?
Given back: 416

Asked: For `CCCC\1=C(/CNC(=O)C2=CC(=CC3=C2C=N[N]3C(C)C)C4=CC=C(N=C4)N5CCN(CC5)C(C)C)C(=O)NC(=C1)\C` then?
Given back: 485

Asked: For `COc1ccc(-n2c(SCCCN3C(=O)c4cccc5cccc(c45)C3=O)nnc2-c2ccncc2)cc1` then?
Given back: 406

Asked: For `CN(C)C(=O)[C@H](O)[C@H](Cc1ccccc1)NC(=O)c1cc2cc(Cl)ccc2[nH]1` then?
Given back: 420

Asked: For `CC1(C)CCC(=C(\C1)C2=CC=C(Cl)C=C2)/CN3CCN(CC3)C4=CC(=C(C=C4)C(=O)N[S+]([O-])(=O)C5=CC=C(NCC6CCOCC6)C(=C5)[N+]([O-])=O)OC7=CN=C8[NH]C=CC8=C7` then?
Given back: 573

----------
Can you tell me area under concentration-response curve for the items I'm about to list?
- Tested on: CU-ACC2
- test.description: area under concentration-response curve (viability) (AUC (a.u.)); higher = less active
- assay.context: 48 h
Write the value as a bare number.

Asked: Item `C[C@@H]1[C@H]\2[C@H](O)[C@H]3[C@H](N(C)C)\C(=C(C(N)=O)/C(=O)[C@@]3(O)\C(=C2C(=O)C4=C(O)C=CC=C14)O)O` has what recorded area under concentration-response curve?
Given back: 325

Asked: For `Cc1ccccc1C(=O)c1ccc(Nc2ccc(Br)cc2N)cc1Cl` then?
Given back: 502

Asked: For `O=C1\C=C(OC2=C(C=CC=C12)C3=CC=CC4=C3SC5=C4C=CC=C5)\N6CCOCC6` then?
Given back: 557

Asked: For `C[S+]([O-])(=O)C1=CC=C(C=C1)C/2=C(/C(=O)OC2)C3=CC=CC=C3` then?
Given back: 467

Asked: For `CC(C)=CC[C@@H](O)C/1=C/C(=O)C2=C(O)C=CC(=C2C1=O)O` then?
Given back: 603

Asked: For CCCCCCCCCCCCCCCCOCCCO[P](O)(=O)COC(CO)CN1/C=C\C(=N/C1=O)N (stereo not drawn) then?
Given back: 609

Asked: For `NC(=O)c1ccccc1Nc1ccnc(Nc2cccc(O)c2)n1` then?
Given back: 553

Asked: For CC1CNc2c(cccc2[S+](=O)([O-])N[C@@H](CCCNC(=N)N)C(=O)N2CC[C@@H](C)C[C@@H]2C(=O)O)C1 (stereo partly drawn) then?
Given back: 547

Reference source for all entries: the supplement of paper PMC10949913
